test system: brine shrimp; type: in vivo; conditions: at 100 μg/ml
// % BL (brine shrimp lethality) lookup, one value per entry

MOLECULE | TESTED_TARGET | UNIT_STRING | % BL (brine shrimp lethality)
CCCCCCCCOc1ccc(NC(=O)C(CCCNC(=O)OC(C)(C)C)NC(=O)C2(O)CC(OC(=O)/C=C/c3ccc(O)c(O)c3)C3OC(C)(C)OC3C2)cc1 (stereo not drawn) | brine shrimp | % | 12.5
CCCCCCCCOc1ccc(NC(=O)C(CCCN)NC(=O)C2(O)CC(O)C(O)C(OC(=O)C(N)CCc3ccc(O)cc3)C2)cc1 (stereo not drawn) | brine shrimp | % | 73.7
CCCCCCCCOc1ccc(NC(=O)C(CCCNC(=O)OC(C)(C)C)NC(=O)C2(O)CC(O)C(O)C(OC(=O)CCc3ccc(O)c(O)c3)C2)cc1 (stereo not drawn) | brine shrimp | % | 21.1
CCCCCCCCOc1ccc(NC(=O)C(CCCNC(=O)OC(C)(C)C)NC(=O)C2(O)CC(OC(=O)/C=C/c3ccc(O)cc3)C3OC(C)(C)OC3C2)cc1 (stereo not drawn) | brine shrimp | % | 0.0
CCCCCCCCOc1ccc(NC(=O)C(CCCNC(=O)OC(C)(C)C)NC(=O)C2(O)CC(OC(=O)C(N)CCc3ccc(O)cc3)C3OC(C)(C)OC3C2)cc1 (stereo not drawn) | brine shrimp | % | 47.7
CCCCCCCCOc1ccc(NC(=O)C(CCCNC(=O)OC(C)(C)C)NC(=O)C2(O)CC(OC(=O)C(CCc3ccc(O)cc3)NC(=O)OCC3c4ccccc4-c4ccccc43)C3OC(C)(C)OC3C2)cc1 (stereo not drawn) | brine shrimp | % | 10.5
CCCCCCCCOc1ccc(NC(=O)C(CC(=O)O)NC(=O)C2(O)CC(O)C(O)C(OC(=O)/C=C/c3ccc(O)c(O)c3)C2)cc1 (stereo not drawn) | brine shrimp | % | 6.3
CCCCCCCCOc1ccc(NC(=O)C(CC(=O)OC(C)(C)C)NC(=O)C2(O)CC(O)C(O)C(OC(=O)/C=C/c3ccc(O)c(O)c3)C2)cc1 (stereo not drawn) | brine shrimp | % | 37.5
O=C(/C=C/c1ccc(O)c(O)c1)O[C@@H]1C[C@](O)(C(=O)O)C[C@@H](O)[C@H]1O | brine shrimp | % | 100
CCCCCCCCOc1ccc(NC(=O)C(CCCNC(=O)OC(C)(C)C)NC(=O)C2(O)CC(O)C(O)C(OC(=O)/C=C/c3ccc(O)cc3)C2)cc1 (stereo not drawn) | brine shrimp | % | 31.6
CCCCCCCCOc1ccc(NC(=O)C(NC(=O)C2(O)CC(O)C(O)C(OC(=O)/C=C/c3ccc(O)c(O)c3)C2)C(C)O)cc1 (stereo not drawn) | brine shrimp | % | 12.5
CCCCCCCCOc1ccc(NC(=O)C2(O)CC(O)C(O)C(OC(=O)/C=C/c3ccc(O)c(O)c3)C2)cc1 (stereo not drawn) | brine shrimp | % | 50.0
CCCCCCCCOc1ccc(NC(=O)C(CCCN)NC(=O)C2(O)CC(O)C(O)C(OC(=O)/C=C/c3ccc(O)cc3)C2)cc1 (stereo not drawn) | brine shrimp | % | 100
CCCCCCCCOc1ccc(NC(=O)C(CCCNC(=O)OC(C)(C)C)NC(=O)C2(O)CC(O)C(O)C(OC(=O)/C=C/c3ccc(O)c(O)c3)C2)cc1 (stereo not drawn) | brine shrimp | % | 25.0
CCCCCCCCOc1ccc(NC(=O)C(COC(C)(C)C)NC(=O)C2(O)CC(OC(=O)/C=C/c3ccc(O)c(O)c3)C3OC(C)(C)OC3C2)cc1 (stereo not drawn) | brine shrimp | % | 31.3
CCCCCCCCOc1ccc(NC(=O)C(NC(=O)C2(O)CC(O)C(O)C(OC(=O)/C=C/c3ccc(O)c(O)c3)C2)C(C)OC(C)(C)C)cc1 (stereo not drawn) | brine shrimp | % | 50.0
CCCCCCCCOc1ccc(NC(=O)C2(O)CC(OC(=O)/C=C/c3ccc(O)c(O)c3)C3OC(C)(C)OC3C2)cc1 (stereo not drawn) | brine shrimp | % | 100.0
CCCCCCCCOc1ccc(NC(=O)C(CCCN)NC(=O)C2(O)CC(O)C(O)C(OC(=O)/C=C/c3ccc(O)c(O)c3)C2)cc1 (stereo not drawn) | brine shrimp | % | 37.5
